pIC50: −log10 of the molar value.
Across several publications, the following pIC50 results were reported for PIK3CB (Human).

Write pIC50 of CS(=O)(=O)N1CCN(C2CN(c3cnc4ccc(-c5ccc6oc(N)nc6c5)nc4n3)C2)CC1 ; system used: PIK3CB (Human)
< 5.00

Write pIC50 of Nc1ncc(-c2cc(N3C[C@@H](CO)OC3=O)nc(N3CCOCC3)n2)c(C(F)(F)F)n1 ; system used: PIK3CB (Human)
7.74

Write pIC50 of Cc1nc2c(C(N)=O)cc(-c3ccnc(N)n3)cc2n1-c1ccnc2c(Cl)cccc12 ; system used: PIK3CB (Human)
7.92

Write pIC50 of Nc1nc2ccc(-c3ccc4ncc(C(=O)N5CCOCC5)n4c3)cc2[nH]1 ; system used: PIK3CB (Human)
< 5.00

Write pIC50 of Nc1ncnc2c1c(-c1cn[nH]c1)nn2Cc1cc2cccc(F)c2c(=O)n1-c1ccccc1F ; system used: PIK3CB (Human)
< 5.00

Write pIC50 of CNc1nc2cc(-c3ccc4ncc(C(=O)N5CCOCC5)n4c3)ccc2o1 ; system used: PIK3CB (Human)
> 5.00

Write pIC50 of Cc1cccc2cc([C@H](C)Nc3ncnc4[nH]cc(C#N)c34)n(-c3ccccc3)c(=O)c12 ; system used: PIK3CB (Human)
> 7.00

Write pIC50 of CCC(Cn1cnc2ccc(-c3cnc(OC)c(NS(=O)(=O)c4ccc(F)cc4Cl)c3)cc2c1=O)C(N)=O (centres unmarked) ; system used: PIK3CB (Human)
6.88
